Recorded measurements of pIC50, one per entry
# METHOD_SUMMARY: Cytotoxicity against human U87MG cells after 24 hrs by MTS assay
# Format: functional, cell-based, U-87MG ATCC
# TEST_SETTINGS: U-87 MG
Hey, just a heads up that pIC50 is the negative log base 10 of the concentration in molar.

Q: Provide measured pIC50 value, entry: CC1(C)C=C2[C@H]3CC[C@@H]4[C@@]5(C)[C@@H](O)C[C@H](O)C(C)(C)[C@@H]5CC[C@@]4(C)[C@]3(C)CC[C@@]2(C)CC1 (relative stereo)
Ans: 5.88

Q: Answer with reported pIC50 of CC(C)(O)[C@@H]1C[C@H]2[C@@](C)(C[C@@H]3C[C@@]32C)C[C@@H]1O
Ans: 5.95

====

Entries and their pIC50
# METHOD_SUMMARY: Cytotoxicity against human U87MG cells after 24 hrs by MTS assay
# Assay type: functional, cell-based, U-87MG ATCC
# TEST_SETTINGS: U-87 MG
// pIC50 is dimensionless: -log10 of concentration (M)

Q: Provide only the value of recorded pIC50 for CC(C)(O)[C@@H]1C[C@H]2[C@](C)(CC1=O)C[C@@H]1C[C@@]12C
Ans: 5.94

Q: For CO[C@@H]1O[C@@]2(CO)CC[C@@]13CC[C@]1(C)[C@H](C[C@@H](O)[C@@H]4[C@@]5(C)CC[C@H](O)[C@](C)(CO)[C@@H]5CC[C@]41C)[C@@H]3[C@]2(C)O (relative stereo) , write its pIC50.
Ans: 5.48
